- targetDesc: His6-JNK2α1 (UniProt P45984-2 1-382)
- measurementProtocol: fluorescence polarisation
pKd: −log10 of the molar value. TMR = 6-carboxytetramethylrhodamine

{"columns": ["binder", "pKd"],
 "data": [
  ["{TMR}-RPKRPTTLNLF-OH [TMR-JIPtide]", 5.29]
]}
